Reference source for all entries: PubChem BioAssay

# protocol.details: growth inhibition, single agents and combos, HTB85, cell-based, BGB or cisplatin IC20 combos, synergistic combos for chromothripsis tumors (AID 1671453);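 further: cells exposed for 96 hours before readout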
# conditions.used: HTB85 osteosarcoma cells, drug combinations, single agent, at 5 µM, stronger effect = higher value
Threshold rule: inhibition greater than or equal to 10% is rule met; below that, rule not met.

COc1ccc(CC(N)C(=O)NC2C(CO)OC(n3cnc4c(N(C)C)ncnc43)C2O)cc1 (stereo not given) ... rule met

Q: Is inhibition for `Cc1c(Br)cc(NCC(=O)N/N=C/c2cc([N+](=O)[O-])ccc2O)cc1Br` at or above 10%?
Ans: rule met

Q: Same read-out for NC(=O)c1ncn(C2OC(CO)C(O)C2O)c1O (stereo not given) ?
Ans: rule not met
